Data credit: ChEMBL document CHEMBL5316347

measurementProtocol: AUC(0 to t) in C57BL/6 mouse at 10 mg/kg, iv qd measured upto 24 hrs by LC-MS/MS analysis
Assay type: ADME, organism-based
Design: dose 10 mg/kg, time < 24 hrs, route iv
conditions: in vivo
Each record here notes measured AUC(0-t) at 24 h.
assayEndpoint: AUC(0-t) at 24 h (ng·h/mL)

>>> reported("CCCn1c(NC(=O)c2cc(C)nn2CC)nc2cc(C(N)=O)cc(OC3COC3)c21")
3820
>>> reported("O=C(Nc1cc(F)c(F)cc1C(=O)O)c1ccc(-n2ccnc2)nn1")
1360
>>> reported("C#Cc1cc(NC(=O)c2ccc(-c3ccnnc3)nn2)c(C(=O)O)cc1F")
4390

---

Test system: Stimulator of interferon genes protein (Homo sapiens), Q86WV6 [UNDEFINED MUTATION]
Sequence (Q86WV6 whole entry, looked up, change not shown): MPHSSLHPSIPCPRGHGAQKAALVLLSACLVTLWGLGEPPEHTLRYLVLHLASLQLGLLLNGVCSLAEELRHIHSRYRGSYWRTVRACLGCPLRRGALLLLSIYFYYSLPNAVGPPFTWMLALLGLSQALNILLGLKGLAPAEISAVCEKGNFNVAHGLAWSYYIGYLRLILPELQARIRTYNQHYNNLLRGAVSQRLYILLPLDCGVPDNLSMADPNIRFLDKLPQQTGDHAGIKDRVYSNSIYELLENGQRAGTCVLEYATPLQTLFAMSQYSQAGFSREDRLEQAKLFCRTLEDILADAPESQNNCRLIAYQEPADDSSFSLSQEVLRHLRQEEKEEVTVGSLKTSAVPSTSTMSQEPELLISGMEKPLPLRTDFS
conditions: filed as agonist, dose 50.0 µM
assayEndpoint: ΔTm (°C)

>>> reported("O=C(Nc1cc(F)c(F)cc1C(=O)O)c1ccc(Nc2cn[nH]c2)nn1")
1
>>> reported("COc1cc(NC(=O)c2ccc(-c3ccnnc3)nn2)c(C(=O)O)cc1OC")
0.5
>>> reported("O=C(Nc1cc(F)c(F)cc1C(=O)O)c1ccc(-c2ccnnc2)nn1")
6
>>> reported("N#Cc1ccn(-c2ccc(C(=O)Nc3cc(F)c(F)cc3C(=O)O)nn2)c1")
3.5
>>> reported("O=C(Nc1ccccc1C(=O)O)c1ccc(-c2ccnnc2)nn1")
0.5
>>> reported("O=C(Nc1ccc(C(F)(F)F)cc1C(=O)O)c1ccc(-c2ccnnc2)nn1")
3.5
>>> reported("Cn1cc(-c2ccc(C(=O)Nc3cc(F)c(F)cc3C(=O)O)nn2)cn1")
0
>>> reported("O=C(Nc1cc(F)c(F)cc1C(=O)O)c1ccc(-n2cccc2)nn1")
0.5
>>> reported("O=C(Nc1cc(F)c(F)cc1C(=O)O)c1ccc(N2CCCC2)nn1")
-1
>>> reported("O=C(Nc1cc(F)c(F)cc1C(=O)O)c1ccc(-c2cnsc2)nn1")
3.5
>>> reported("COc1ccc(C(=O)O)c(NC(=O)c2ccc(-c3ccnnc3)nn2)c1")
1.5
>>> reported("O=C(Nc1cc(F)c(F)cc1C(=O)O)c1ccc(-n2cncn2)nn1")
1.5
>>> reported("O=C(Nc1ccc(Br)cc1C(=O)O)c1ccc(-c2ccnnc2)nn1")
3.5

---

measurementProtocol: Clearance in C57BL/6 mouse at 10 mg/kg, iv qd measured upto 24 hrs by LC-MS/MS analysis
Type: ADME, organism-based
conditions: in vivo
Each record here notes measured clearance.
assayEndpoint: clearance (mL/min/kg)

>>> reported("CCCn1c(NC(=O)c2cc(C)nn2CC)nc2cc(C(N)=O)cc(OC3COC3)c21")
43.8
>>> reported("C#Cc1cc(NC(=O)c2ccc(-c3ccnnc3)nn2)c(C(=O)O)cc1F")
37.8
>>> reported("O=C(Nc1cc(F)c(F)cc1C(=O)O)c1ccc(-n2ccnc2)nn1")
123

---

Each record here notes measured pEC50.
systemTested: Stimulator of interferon genes protein (Homo sapiens, UniProt Q86WV6)
measurementProtocol: Agonist activity at human STING in human THP1-Blue ISG cells incubated for 24 hrs in presence of PMA by luciferase reporter assay
Type: cell-based
pEC50: −log10 of the molar value.
assayEndpoint: pEC50

>>> reported("COc1ccc(C(=O)O)c(NC(=O)c2ccc(-c3ccnnc3)nn2)c1")
5.22
>>> reported("O=C(Nc1cc(F)c(F)cc1C(=O)O)c1ccc(-n2cncn2)nn1")
4.94
>>> reported("Cc1cncn1-c1ccc(C(=O)Nc2cc(F)c(F)cc2C(=O)O)nn1")
4.64
>>> reported("O=C(Nc1cc(F)c(F)cc1C(=O)O)c1ccc(-c2cnsc2)nn1")
4.75
>>> reported("COc1cc2cc(C(=O)CCC(=O)O)sc2cc1OC")
5.45
>>> reported("O=C(Nc1cc(F)c(F)cc1C(=O)O)c1ccc(-c2ccnnc2)nn1")
4.75
>>> reported("O=C(Nc1cc(F)c(F)cc1C(=O)O)c1ccc(-c2ccoc2)nn1")
4.42
>>> reported("O=C(Nc1cc(F)c(F)cc1C(=O)O)c1ccc(-c2cccnc2)nn1")
4.49
>>> reported("O=C(Nc1ccc(C(F)(F)F)cc1C(=O)O)c1ccc(-c2ccnnc2)nn1")
2.71
>>> reported("N#Cc1ccn(-c2ccc(C(=O)Nc3cc(F)c(F)cc3C(=O)O)nn2)c1")
4.98
>>> reported("O=C(Nc1ccc(Br)cc1C(=O)O)c1ccc(-c2ccnnc2)nn1")
5.35
>>> reported("O=C(Nc1cc(F)c(F)cc1C(=O)O)c1ccc(-c2cncnc2)nn1")
4.49
>>> reported("O=C(Nc1cc(F)c(F)cc1C(=O)O)c1ccc(Nc2cn[nH]c2)nn1")
4.65
>>> reported("COc1cc(NC(=O)c2ccc(-c3ccnnc3)nn2)c(C(=O)O)cc1OC")
4.67
>>> reported("Cn1cc(-c2ccc(C(=O)Nc3cc(F)c(F)cc3C(=O)O)nn2)cn1")
4.69
>>> reported("CC(=O)c1ccn(-c2ccc(C(=O)Nc3cc(F)c(F)cc3C(=O)O)nn2)c1")
4.52
>>> reported("O=C(Nc1cc(F)c(F)cc1C(=O)O)c1ccc(-n2cccc2)nn1")
4.47

---

Each record here notes measured MRT inf.
measurementProtocol: MRT(0 to infinity) in C57BL/6 mouse at 10 mg/kg, iv qd measured upto 24 hrs by LC-MS/MS analysis
Format: ADME, organism-based
conditions: in vivo
assayEndpoint: MRT inf (min)

>>> reported("O=C(Nc1cc(F)c(F)cc1C(=O)O)c1ccc(-n2ccnc2)nn1")
29.7
>>> reported("CCCn1c(NC(=O)c2cc(C)nn2CC)nc2cc(C(N)=O)cc(OC3COC3)c21")
53.6
>>> reported("C#Cc1cc(NC(=O)c2ccc(-c3ccnnc3)nn2)c(C(=O)O)cc1F")
63.6

---

System: Stimulator of interferon genes protein (Homo sapiens), Q86WV6 [UNDEFINED MUTATION]
conditions: dose 50.0 µM
assayEndpoint: ΔTm (°C)

>>> reported("COc1ccc(NC(=O)c2ccc(-c3ccnnc3)nn2)c(C(=O)O)c1")
0
>>> reported("CC(=O)c1ccn(-c2ccc(C(=O)Nc3cc(F)c(F)cc3C(=O)O)nn2)c1")
0
>>> reported("Cc1cncn1-c1ccc(C(=O)Nc2cc(F)c(F)cc2C(=O)O)nn1")
0
>>> reported("O=C(Nc1cc(F)c(F)cc1C(=O)O)c1ccc(-c2ccoc2)nn1")
0
>>> reported("O=C(Nc1cc(F)c(F)cc1C(=O)O)c1ccc(N2CCOCC2)nn1")
0
>>> reported("O=C(Nc1cc(F)c(F)cc1C(=O)O)c1ccc(-c2cccnc2)nn1")
0
>>> reported("O=C(Nc1cc(C(F)(F)F)ccc1C(=O)O)c1ccc(-c2ccnnc2)nn1")
0
>>> reported("O=C(Nc1cc(F)c(F)cc1C(=O)O)c1ccc(-c2cncnc2)nn1")
0

---

measurementProtocol: AUC(0 to infinity) in C57BL/6 mouse at 10 mg/kg, iv qd measured upto 24 hrs by LC-MS/MS analysis
Assay type: ADME, organism-based
Parameters: time < 24 hrs, dose 10 mg/kg, route iv
conditions: in vivo
Each record here notes measured AUC(0-inf).
assayEndpoint: AUC(0-inf) (ng·h/mL)

>>> reported("O=C(Nc1cc(F)c(F)cc1C(=O)O)c1ccc(-n2ccnc2)nn1")
1370
>>> reported("CCCn1c(NC(=O)c2cc(C)nn2CC)nc2cc(C(N)=O)cc(OC3COC3)c21")
3830
>>> reported("C#Cc1cc(NC(=O)c2ccc(-c3ccnnc3)nn2)c(C(=O)O)cc1F")
4410

---

systemTested: Stimulator of interferon genes protein (Mus musculus)
Sequence (Q3TBT3 whole entry, the tested form may be a part): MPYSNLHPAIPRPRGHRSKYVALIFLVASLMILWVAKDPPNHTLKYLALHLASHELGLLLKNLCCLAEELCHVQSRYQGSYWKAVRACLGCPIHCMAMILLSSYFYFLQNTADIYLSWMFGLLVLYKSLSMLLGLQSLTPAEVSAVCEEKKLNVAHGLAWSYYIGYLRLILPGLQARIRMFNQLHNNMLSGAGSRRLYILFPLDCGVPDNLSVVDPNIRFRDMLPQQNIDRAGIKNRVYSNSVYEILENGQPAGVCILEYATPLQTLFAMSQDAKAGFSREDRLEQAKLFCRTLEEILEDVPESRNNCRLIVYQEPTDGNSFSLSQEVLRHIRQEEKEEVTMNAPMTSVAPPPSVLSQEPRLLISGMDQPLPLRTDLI
measurementProtocol: Agonist activity at mouse 6His-tagged recombinant STING CTD (144 to 378 residues) expressed in Escherichia coli BL21 (DE3) incubated for 10 mins by FRET assay
Each record here notes measured IC50.
assayEndpoint: IC50

>>> reported("O=C(Nc1cc(Cl)c(F)cc1C(=O)O)c1ccc(-c2ccnnc2)nn1")
"930 nM"
>>> reported("O=C(Nc1cc(Br)c(F)cc1C(=O)O)c1ccc(-c2ccnnc2)nn1")
"1900 nM"
>>> reported("O=C(Nc1cc(F)c(F)cc1C(=O)O)c1ccc(-n2ccnc2)nn1")
"1600 nM"
